# target-desc: T1, cMetECDHis (human, UniProt P08581 25-932, limits assumed, biotinylated in the cross-block ELISA of Example 17)
# T1 construct: Expressed in HEK-293F cells; also called soluble cMetECDHis; biotinylated cMetECDHis
# experiment-notes: cross-block ELISA; competitor 098
property-label: residual binding, % of no competitor (%)
Value expressed in %; do not type the unit.

Retrieve residual binding, % of no competitor measured for IgG1-1016-069 (antibody, V domains shown, also called clone 069; TH1016-069) VH: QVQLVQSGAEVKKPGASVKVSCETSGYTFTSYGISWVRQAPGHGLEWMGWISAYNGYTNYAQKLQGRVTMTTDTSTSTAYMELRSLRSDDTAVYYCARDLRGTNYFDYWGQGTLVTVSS VL: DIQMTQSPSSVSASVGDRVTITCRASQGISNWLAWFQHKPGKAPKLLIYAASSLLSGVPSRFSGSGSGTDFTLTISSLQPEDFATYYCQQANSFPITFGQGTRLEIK and print it.
12.5
